binders and their reported pKd
Experimental Target: T1, 食蟹猴CD38胞外区 (mfCD38) with C-terminal His tag, mfCD38-his (cynomolgus monkey (Macaca fascicularis), UniProt Q5VAN0 44-301)
T1 construct: not shown: His tag added at the C-terminus
T1 sequence (Q5VAN0 44-301): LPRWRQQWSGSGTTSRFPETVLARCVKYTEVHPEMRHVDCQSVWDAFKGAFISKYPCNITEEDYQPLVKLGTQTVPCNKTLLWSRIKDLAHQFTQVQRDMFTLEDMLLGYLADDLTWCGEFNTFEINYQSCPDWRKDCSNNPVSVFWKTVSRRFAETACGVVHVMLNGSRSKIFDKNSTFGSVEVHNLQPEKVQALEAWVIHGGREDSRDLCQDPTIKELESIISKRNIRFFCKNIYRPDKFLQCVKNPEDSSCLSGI
Assay Remarks: SPR (Biacore), antibody captured by anti-human Fc on CM5, mfCD38 as analyte
Keep it numeric: pKd is minus log10 of the concentration in mol/L.

[
  {
    "Binder": "S5B8VH-h1+S5B8VK-h1 (antibody, human IgG1, V domains shown, Humanized, expressed as a human IgG1 whole antibody; also called S5B8人源化分子) VH: QVQLVQSGAEVKKPGASVKVSCKASGYAFTNSWMHWVRQAPGQRLEWMGEIHPQSGRTNYNEKFKGRVTITRDTSASTAYMELSSLRSEDTAVYYCARDLLQFGNQYYYAMDYWGQGTLVTVSS VL: DVVMTQSPLSLPVTLGQPASISCRSSQSLVHSNGNTYLHWFQQRPGQSPRRLIYKVSNRFSGVPDRFSGSGSGTDFTLKISRVEAEDVGVYYCSQSTHVPLTFGQGTKLEIK",
    "pKd": 7.87
  },
  {
    "Binder": "S5B8VH-h1+S5B8VK-h2 (antibody, human IgG1, V domains shown, Humanized, expressed as a human IgG1 whole antibody; also called S5B8人源化分子) VH: QVQLVQSGAEVKKPGASVKVSCKASGYAFTNSWMHWVRQAPGQRLEWMGEIHPQSGRTNYNEKFKGRVTITRDTSASTAYMELSSLRSEDTAVYYCARDLLQFGNQYYYAMDYWGQGTLVTVSS VL: DIVMTQTPLSLPVTPGEPASISCRSSQSLVHSNGNTYLHWYLQKPGQSPQLLIYKVSNRFSGVPDRFSGSGSGTDFTLKISRVEAEDVGVYYCSQSTHVPLTFGQGTKLEIK",
    "pKd": 8.29
  }
]

Attention now shifts to the item below.
Determine its reported pKd: S5B8 (mouse-human chimeric antibody, human IgG1) (antibody, V domains shown, Tested as a recombinant human IgG1-kappa/lambda mouse-human chimeric antibody; also called 鼠单抗S5B8) VH: QVQLQQSGSVLVRPGVSVKLSCKASGYAFTNSWMHWAKQRPGQGLEWIGEIHPQSGRTNYNEKFKGKATLTVDTSSSTAYVDFSSLTSEDSAVYYCARDLLQFGNQYYYAMDYWGQGTSVTVSS VL: DVVMTQTPLSLPVSLGDQASISCRSSQSLVHSNGNTYLHWYLQKPGQSPKLLIYKVSNRFSGVPDRFSGSGSGTDFTLKISRVEAEDLGVYFCSQSTHVPLTFGAGTKLEMK 8.50
